Tested on: Leucine-rich repeat serine/threonine-protein kinase 2 (Homo sapiens), Q5S007 [G2019S]
Sequence (Q5S007 whole entry G2019S): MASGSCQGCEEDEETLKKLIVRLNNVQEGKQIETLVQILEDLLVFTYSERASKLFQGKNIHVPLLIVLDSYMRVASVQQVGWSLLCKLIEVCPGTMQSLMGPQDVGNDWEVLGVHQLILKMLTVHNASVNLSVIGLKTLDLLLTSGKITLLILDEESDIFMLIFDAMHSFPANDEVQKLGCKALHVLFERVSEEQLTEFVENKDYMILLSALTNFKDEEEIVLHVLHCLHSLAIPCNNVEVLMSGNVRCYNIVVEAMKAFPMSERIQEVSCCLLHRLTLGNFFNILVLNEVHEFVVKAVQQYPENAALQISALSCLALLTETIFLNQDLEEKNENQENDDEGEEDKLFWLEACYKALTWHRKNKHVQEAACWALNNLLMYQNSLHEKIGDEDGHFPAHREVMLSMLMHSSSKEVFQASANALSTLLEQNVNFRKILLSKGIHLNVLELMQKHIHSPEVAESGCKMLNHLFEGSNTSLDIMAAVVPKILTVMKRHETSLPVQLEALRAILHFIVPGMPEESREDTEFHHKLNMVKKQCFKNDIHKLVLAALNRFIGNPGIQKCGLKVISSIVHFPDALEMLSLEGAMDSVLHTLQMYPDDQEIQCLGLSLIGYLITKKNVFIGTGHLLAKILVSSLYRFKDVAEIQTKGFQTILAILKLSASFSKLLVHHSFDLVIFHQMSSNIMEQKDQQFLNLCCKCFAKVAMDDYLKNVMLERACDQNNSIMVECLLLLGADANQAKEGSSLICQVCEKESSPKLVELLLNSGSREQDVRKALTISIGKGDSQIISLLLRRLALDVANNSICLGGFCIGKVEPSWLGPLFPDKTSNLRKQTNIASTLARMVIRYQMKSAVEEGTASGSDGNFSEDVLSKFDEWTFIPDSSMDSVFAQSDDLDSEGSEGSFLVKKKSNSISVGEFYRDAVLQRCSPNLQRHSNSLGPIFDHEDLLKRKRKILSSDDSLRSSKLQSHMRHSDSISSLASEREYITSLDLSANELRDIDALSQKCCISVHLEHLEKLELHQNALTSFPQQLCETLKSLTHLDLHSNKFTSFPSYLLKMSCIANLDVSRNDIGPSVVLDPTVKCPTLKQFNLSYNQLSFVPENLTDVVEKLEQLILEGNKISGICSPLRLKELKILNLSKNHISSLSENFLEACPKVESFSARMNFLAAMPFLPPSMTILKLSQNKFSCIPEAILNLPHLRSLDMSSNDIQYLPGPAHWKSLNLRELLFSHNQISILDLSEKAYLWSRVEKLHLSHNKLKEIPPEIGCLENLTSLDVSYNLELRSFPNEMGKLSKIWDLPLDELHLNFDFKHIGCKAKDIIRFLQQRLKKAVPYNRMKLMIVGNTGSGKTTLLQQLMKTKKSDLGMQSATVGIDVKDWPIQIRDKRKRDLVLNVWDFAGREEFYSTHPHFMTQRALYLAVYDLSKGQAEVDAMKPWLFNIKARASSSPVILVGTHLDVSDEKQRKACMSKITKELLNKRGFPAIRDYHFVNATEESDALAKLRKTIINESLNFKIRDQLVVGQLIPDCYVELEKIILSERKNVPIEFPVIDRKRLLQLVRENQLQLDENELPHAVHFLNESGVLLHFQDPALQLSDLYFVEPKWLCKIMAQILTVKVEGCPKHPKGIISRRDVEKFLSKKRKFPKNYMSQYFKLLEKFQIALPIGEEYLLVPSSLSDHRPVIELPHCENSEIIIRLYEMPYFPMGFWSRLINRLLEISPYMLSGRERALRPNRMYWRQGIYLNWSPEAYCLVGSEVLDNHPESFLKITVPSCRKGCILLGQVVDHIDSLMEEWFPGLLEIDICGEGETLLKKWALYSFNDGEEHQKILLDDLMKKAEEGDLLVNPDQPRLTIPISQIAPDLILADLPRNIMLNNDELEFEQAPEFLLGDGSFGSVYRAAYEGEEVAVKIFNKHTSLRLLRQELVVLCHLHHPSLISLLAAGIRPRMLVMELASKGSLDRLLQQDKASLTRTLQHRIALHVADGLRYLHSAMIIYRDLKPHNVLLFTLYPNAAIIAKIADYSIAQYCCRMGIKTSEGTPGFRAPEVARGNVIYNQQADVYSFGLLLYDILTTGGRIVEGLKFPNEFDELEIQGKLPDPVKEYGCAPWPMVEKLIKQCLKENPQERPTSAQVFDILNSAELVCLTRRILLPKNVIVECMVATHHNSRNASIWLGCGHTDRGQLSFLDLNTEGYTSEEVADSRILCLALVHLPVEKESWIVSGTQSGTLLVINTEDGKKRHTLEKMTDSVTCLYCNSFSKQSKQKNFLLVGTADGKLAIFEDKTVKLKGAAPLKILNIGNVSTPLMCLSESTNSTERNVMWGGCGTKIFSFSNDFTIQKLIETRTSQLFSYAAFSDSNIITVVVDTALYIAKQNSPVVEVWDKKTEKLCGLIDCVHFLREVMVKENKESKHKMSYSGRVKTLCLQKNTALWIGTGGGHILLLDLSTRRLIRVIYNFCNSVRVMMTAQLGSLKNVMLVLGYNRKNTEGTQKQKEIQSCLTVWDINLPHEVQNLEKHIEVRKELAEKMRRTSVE
study_conditions: at 1 µM
Given measured inhibition, output rule met if it is greater than or equal to 10% and rule not met if not.

Evaluate `NS(=O)(=O)c1ccc(N/N=C2\C(=O)Nc3cccc(CCc4ccncc4)c32)cc1` : inhibition at minimum 10%?
rule met

Same read-out for `O=C(O[C@H]1CN[C@H](C#Cc2cc3ncnc(Nc4ccc5c(cnn5Cc5ccccc5)c4)c3s2)C1)N1CCOCC1` ?
rule not met

Same read-out for `COc1cccc(Nc2nccc(-c3cnn4ncccc34)n2)c1` ?
rule met

Same read-out for `Cc1cc(O)cc(C)c1/C=C/c1cncc(C(N)=O)c1` ?
rule met

Same read-out for `CS(=O)(=O)CCNCc1ccc(-c2ccc3ncnc(Nc4ccc(OCc5ccccc5)cc4)c3c2)o1` ?
rule not met

Same read-out for `CCOc1ccc2c(-c3ccnc(Nc4cc(OC)cc(C(F)(F)F)c4)n3)cnn2n1` ?
rule met

From: ChEMBL document CHEMBL1961873
